For each record, write down the corresponding Ki.
Molecular target: hMCHR (MCH receptor) (Homo sapiens, UniProt Q99705)
Construct: (or internally produced); host or cells: CHO (Chinese hamster ovary) cells, membrane preparation
Sequence (Q99705 whole entry): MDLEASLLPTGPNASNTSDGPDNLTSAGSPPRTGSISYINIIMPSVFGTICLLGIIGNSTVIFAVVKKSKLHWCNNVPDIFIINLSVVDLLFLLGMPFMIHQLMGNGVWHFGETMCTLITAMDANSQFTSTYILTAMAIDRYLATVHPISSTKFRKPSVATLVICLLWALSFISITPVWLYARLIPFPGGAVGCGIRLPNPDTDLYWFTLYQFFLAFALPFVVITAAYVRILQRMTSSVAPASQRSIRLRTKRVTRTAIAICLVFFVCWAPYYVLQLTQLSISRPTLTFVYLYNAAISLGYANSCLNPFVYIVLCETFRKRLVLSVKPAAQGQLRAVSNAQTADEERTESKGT
Test: MCH Assay PCOP Protocol ([125I]-MCH SPA binding to hMCHR-CHO membranes)
Conditions: [125I]-MCH 0.5 nM, hMCHR-CHO membranes; read-out: Activity (ranges of Ki values)

Output Ki of O=C(NCC(CCNC1CCNC1)c1ccc(Cl)c(Cl)c1)Nc1ccc(Cl)c(Cl)c1 (stereo not shown)
51 to 500 nM

Output Ki of CS(=O)(=O)NC1CCN(CCC(CNC(=O)Nc2cc(Cl)cc(Cl)c2)c2ccc(-c3cccc(C#N)c3)cc2)CC1 (racemic)
501 to 2500 nM

Output Ki of CC(=O)NC1CCN(CCC(CNC(=O)Nc2cc(Cl)cc(Cl)c2)c2ccc(Cl)cc2)CC1 (stereo not shown)
51 to 500 nM

Output Ki of N#Cc1cccc(-c2ccc(C(CCNC3CC3)CNC(=O)Nc3ccc(F)cc3)cc2)c1 (stereo not shown)
0.4 to 50 nM

Output Ki of N#Cc1cccc(-c2ccc([C@H](CCN3CC[C@@H](NC(=O)c4cc(Cl)cc(Cl)c4)C3)CNC(=O)Nc3cc(Cl)cc(Cl)c3)cc2)c1
501 to 2500 nM

Output Ki of COc1cc(CNCCC(CNC(=O)Nc2cc(Cl)cc(Cl)c2)c2ccc(Cl)c(Cl)c2)cc(OC)c1OC (stereo not shown)
51 to 500 nM

Output Ki of CNCCC(CNC(=O)Nc1ccc(Cl)cc1)c1ccc(-c2cccc(C#N)c2)cc1 (stereo not shown)
0.4 to 50 nM

Output Ki of O=C(NCC(CCNC1CCCC1)c1ccc(Cl)c(Cl)c1)Nc1ccc(F)c([N+](=O)[O-])c1 (stereo not shown)
501 to 2500 nM

Output Ki of O=C(NCC(CCNC1CCCC1)c1cccc(-c2ccccc2Cl)c1)Nc1cc(Cl)cc(Cl)c1 (stereo not shown)
501 to 2500 nM

Output Ki of CNCCC(C(=O)Nc1cc(Cl)cc(Cl)c1)c1ccc(-c2cccc(C#N)c2)cc1 (stereo not shown)
501 to 2500 nM

Output Ki of COCC(=O)NC1CCN(CCC(CNC(=O)Nc2cc(Cl)cc(Cl)c2)c2ccc(C)cc2)CC1 (stereo not shown)
501 to 2500 nM

Output Ki of CN(C)CCC(CNS(=O)(=O)c1cc(Cl)cc(Cl)c1)c1ccc(-c2cccc(C#N)c2)cc1 (racemic)
501 to 2500 nM

Output Ki of CCNC(=O)N1CCC(NCCC(CNC(=O)Nc2cc(Cl)cc(Cl)c2)c2ccc(Cl)cc2)C1 (stereo not shown)
51 to 500 nM

Output Ki of CNCCC(CNC(=O)Nc1cccc(Cl)c1)c1ccc(-c2cccc(C#N)c2)cc1 (stereo not shown)
0.4 to 50 nM

Output Ki of CC(=O)NC1CCN(CCC(CNC(=O)Nc2cc(Cl)cc(Cl)c2)c2ccc(C)cc2)C1 (stereo not shown)
501 to 2500 nM

Output Ki of CS(=O)(=O)NC1CCN(CCC(CNC(=O)Nc2cc(Cl)cc(Cl)c2)c2ccc(Cl)cc2)C1 (stereo not shown)
501 to 2500 nM

Output Ki of Cc1ccc(-c2cccc(C(CCNC3CCCC3)CNC(=O)Nc3cc(Cl)cc(Cl)c3)c2)cc1 (stereo not shown)
501 to 2500 nM

Output Ki of CN(C)CCCNCCC(CNC(=O)Nc1cc(Cl)cc(Cl)c1)c1ccc(-c2cc(F)cc(F)c2)cc1 (stereo not shown)
51 to 500 nM

Output Ki of CN(C)CCC(CNC(=O)c1cc(F)cc(F)c1)c1ccc(-c2cccc(C#N)c2)cc1 (stereo not shown)
0.4 to 50 nM

Output Ki of CNCCC(CNC(=O)Nc1ccc(F)cc1)c1ccc(-c2cccc(C#N)c2)cc1 (stereo not shown)
0.4 to 50 nM

Output Ki of CCNC(=O)N1CCC(NCCC(CNC(=O)Nc2cc(Cl)cc(Cl)c2)c2ccc(C)cc2)C1 (stereo not shown)
51 to 500 nM

Output Ki of O=C(NCC(CCNC1CCCC1)c1ccc(-c2cc(F)cc(F)c2)cc1)Nc1cc(Cl)cc(Cl)c1 (stereo not shown)
0.4 to 50 nM

Output Ki of O=C(NCC(CCN1CCC(NC(=O)C2CCC2)C1)c1ccc(Cl)cc1)Nc1cc(Cl)cc(Cl)c1 (stereo not shown)
51 to 500 nM

Output Ki of O=C(NCC(CCNC1CCCC1)c1cccc(-c2ccc(Cl)c(Cl)c2)c1)Nc1cc(Cl)cc(Cl)c1 (stereo not shown)
51 to 500 nM

Output Ki of O=C(NCC(CCN1CCC(NC(=O)c2ccno2)C1)c1ccc(Cl)c(Cl)c1)Nc1cc(Cl)cc(Cl)c1 (stereo not shown)
501 to 2500 nM

Output Ki of N#Cc1cccc(-c2ccc(C(CCNC3CC3)CNC(=O)Nc3ccc(F)c(F)c3)cc2)c1 (stereo not shown)
0.4 to 50 nM

Output Ki of COc1cc(-c2cccc(C(CCNC3CCCC3)CNC(=O)Nc3cc(Cl)cc(Cl)c3)c2)cc(OC)c1OC (stereo not shown)
51 to 500 nM

Output Ki of Cc1ccc(C(CCN2CCC(NC(=O)c3cccs3)CC2)CNC(=O)Nc2cc(Cl)cc(Cl)c2)cc1 (stereo not shown)
51 to 500 nM
